- Target desc: T1, P-cadherin-ECD1-3-Fc protein (human P-cadherin-Fc) (human, UniProt P22223 108-440)
- T1 construct: Construct was expressed with signal peptide and pro-peptide (PACE co-transfected to process the propeptide); not shown: hinge and CH2 and CH3 domains of human IgG1
- T1 sequence (P22223 108-440): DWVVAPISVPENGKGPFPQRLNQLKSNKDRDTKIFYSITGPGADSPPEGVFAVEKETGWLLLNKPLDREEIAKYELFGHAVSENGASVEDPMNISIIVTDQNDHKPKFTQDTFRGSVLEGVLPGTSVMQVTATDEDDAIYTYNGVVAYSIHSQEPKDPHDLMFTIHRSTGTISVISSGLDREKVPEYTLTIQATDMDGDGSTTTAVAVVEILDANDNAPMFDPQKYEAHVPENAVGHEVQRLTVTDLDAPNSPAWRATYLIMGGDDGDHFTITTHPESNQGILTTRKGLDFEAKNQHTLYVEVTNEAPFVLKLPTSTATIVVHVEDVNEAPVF
- Assay protocol: phage scFv ELISA, coated P-cadherin-ECD1-3-Fc
Measurement name: % of binding of Clone #153 to human P-cadherin-Fc (%)

Binder	Reported value
anti-P-cadherin scFv 153 alanine-mutant L3.4-Ala (scFv, V domains shown, scFv on phage) VH: EVQLVQSGAEVKKPGASVKVSCKASGYTFTSYGISWVRQAPGQGLEWMGWISAYNGNTNYAQKLQGRVTMTTDTSTSTAYMELRSLRSDDTAVYYCATIDTANAFGIWGQGTMVTVSS VL: QSVLTQPPSVSAAPGQKVTISCSGSSSNIGNNYVSWYQQLPGTAPKLLIYDNNKRPSGIPDRFSGSKSGTSATLGITGLQTGDEADYYCGTWASSLSGVVFGGGTKLTVL	70
anti-P-cadherin scFv 153 alanine-mutant L1.10-Ala (scFv, V domains shown, scFv on phage) VH: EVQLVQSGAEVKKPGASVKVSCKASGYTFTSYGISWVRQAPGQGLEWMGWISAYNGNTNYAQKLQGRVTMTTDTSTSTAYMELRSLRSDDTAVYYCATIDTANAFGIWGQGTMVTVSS VL: QSVLTQPPSVSAAPGQKVTISCSGSSSNIGNAYVSWYQQLPGTAPKLLIYDNNKRPSGIPDRFSGSKSGTSATLGITGLQTGDEADYYCGTWDSSLSGVVFGGGTKLTVL	137

Every entry's value here was drawn from patent US20160002357A1.
